All values here come from ChEMBL document CHEMBL4765228.

Target: Vascular endothelial growth factor receptor 1 (Homo sapiens)
Experiment: Inhibition of human VEGFR1 assessed as residual activity at 0.1 uM relative to control
PARAMETER: Activity (%)
Write down the numeric answer in % and omit the unit.

State the recorded Activity for this entry: `COc1ccc2c(c1)c(/C=C1\C(=O)Nc3ccc(S(N)(=O)=O)cc31)cn2C`
94

State the recorded Activity for this entry: `COc1ccc2c(c1)c(/C=C1\C(=O)Nc3ccc(S(=O)(=O)N(C)C)cc31)cn2C`
96

State the recorded Activity for this entry: `CNS(=O)(=O)c1ccc2c(c1)/C(=C/c1cn(C)c3ccc(OC)cc13)C(=O)N2`
91

State the recorded Activity for this entry: `Cn1cc(/C=C2\C(=O)Nc3ccc(S(N)(=O)=O)cc32)c2ccccc21`
82

State the recorded Activity for this entry: `COc1ccc2[nH]cc(/C=C3\C(=O)Nc4ccc(S(N)(=O)=O)cc43)c2c1`
96

State the recorded Activity for this entry: `CN(C)S(=O)(=O)c1ccc2c(c1)/C(=C/c1cn(C)c3ccc(O)cc13)C(=O)N2`
100

* * *

Target: Interleukin-1 receptor-associated kinase 4 (Homo sapiens) (UniProt Q9NWZ3)
Sequence (whole entry): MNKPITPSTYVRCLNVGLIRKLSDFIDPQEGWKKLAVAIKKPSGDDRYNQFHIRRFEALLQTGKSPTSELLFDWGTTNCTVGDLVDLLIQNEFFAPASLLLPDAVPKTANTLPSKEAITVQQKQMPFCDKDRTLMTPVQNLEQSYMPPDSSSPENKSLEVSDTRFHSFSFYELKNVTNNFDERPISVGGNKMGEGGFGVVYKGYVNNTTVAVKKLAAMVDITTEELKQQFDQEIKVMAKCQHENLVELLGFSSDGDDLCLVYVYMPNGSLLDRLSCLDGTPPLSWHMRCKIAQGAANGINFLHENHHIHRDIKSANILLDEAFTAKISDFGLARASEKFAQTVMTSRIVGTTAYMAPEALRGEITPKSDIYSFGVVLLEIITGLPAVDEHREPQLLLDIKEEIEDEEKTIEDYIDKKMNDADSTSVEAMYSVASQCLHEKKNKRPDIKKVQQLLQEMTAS
Test: Inhibition of human untagged IRAK4 assessed as residual activity at 0.1 uM relative to control
PARAMETER: Activity (%)
Write down the numeric answer in % and omit the unit.

Solved cases (3 shown):
- TEST SMILES: "CNS(=O)(=O)c1ccc2c(c1)/C(=C/c1cn(C)c3ccc(OC)cc13)C(=O)N2"
  PARAMETER: "Activity"
  EXPERIMENTAL RESULT: 59
- TEST SMILES: "Cn1cc(/C=C2\\C(=O)Nc3ccc(S(N)(=O)=O)cc32)c2ccccc21"
  PARAMETER: "Activity"
  EXPERIMENTAL RESULT: 6
- TEST SMILES: "COc1ccc2c(c1)c(/C=C1\\C(=O)Nc3ccc(S(N)(=O)=O)cc31)cn2C"
  PARAMETER: "Activity"
  EXPERIMENTAL RESULT: 12

State the recorded Activity for this entry: `CN(C)S(=O)(=O)c1ccc2c(c1)/C(=C/c1cn(C)c3ccc(O)cc13)C(=O)N2`
68

State the recorded Activity for this entry: `COc1ccc2[nH]cc(/C=C3\C(=O)Nc4ccc(S(N)(=O)=O)cc43)c2c1`
45

State the recorded Activity for this entry: `COc1ccc2c(c1)c(/C=C1\C(=O)Nc3ccc(S(=O)(=O)N(C)C)cc31)cn2C`
91

* * *

Target: Ribosomal protein S6 kinase alpha-5 (Homo sapiens) (UniProt O75582)
Sequence (O75582 whole entry, looked up): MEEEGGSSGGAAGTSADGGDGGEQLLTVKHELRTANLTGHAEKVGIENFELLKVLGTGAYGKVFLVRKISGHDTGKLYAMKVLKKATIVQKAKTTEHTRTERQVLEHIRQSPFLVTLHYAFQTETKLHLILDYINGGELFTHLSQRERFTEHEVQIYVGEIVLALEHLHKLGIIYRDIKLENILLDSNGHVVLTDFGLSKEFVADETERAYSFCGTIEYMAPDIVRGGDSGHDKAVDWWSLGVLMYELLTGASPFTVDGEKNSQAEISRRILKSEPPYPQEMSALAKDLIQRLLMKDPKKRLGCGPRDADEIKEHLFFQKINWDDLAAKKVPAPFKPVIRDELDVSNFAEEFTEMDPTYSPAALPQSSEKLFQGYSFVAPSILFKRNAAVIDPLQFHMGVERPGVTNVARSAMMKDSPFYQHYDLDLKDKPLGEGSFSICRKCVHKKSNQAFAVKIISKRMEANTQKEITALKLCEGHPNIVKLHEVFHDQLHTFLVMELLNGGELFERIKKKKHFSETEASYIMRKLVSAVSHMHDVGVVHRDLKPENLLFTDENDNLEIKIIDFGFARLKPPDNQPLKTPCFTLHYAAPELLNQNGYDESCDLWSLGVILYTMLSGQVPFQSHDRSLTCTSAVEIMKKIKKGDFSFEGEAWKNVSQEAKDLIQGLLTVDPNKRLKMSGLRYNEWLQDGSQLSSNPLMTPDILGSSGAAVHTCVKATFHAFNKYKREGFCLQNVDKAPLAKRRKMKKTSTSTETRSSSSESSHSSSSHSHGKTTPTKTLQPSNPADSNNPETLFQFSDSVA
Assay: Inhibition of human RPS6KA5 assessed as residual activity at 0.1 uM relative to control
PARAMETER: Activity (%)
Write down the numeric answer in % and omit the unit.

Solved cases (5 shown):
- TEST SMILES: "COc1ccc2[nH]cc(/C=C3\\C(=O)Nc4ccc(S(N)(=O)=O)cc43)c2c1"
  EXPERIMENTAL TARGET: "Ribosomal protein S6 kinase alpha-5 (Homo sapiens) (UniProt O75582)"
  EXPERIMENTAL RESULT: 93
- TEST SMILES: "CN(C)S(=O)(=O)c1ccc2c(c1)/C(=C/c1cn(C)c3ccc(O)cc13)C(=O)N2"
  EXPERIMENTAL TARGET: "Ribosomal protein S6 kinase alpha-5 (Homo sapiens) (UniProt O75582)"
  EXPERIMENTAL RESULT: 106
- TEST SMILES: "COc1ccc2c(c1)c(/C=C1\\C(=O)Nc3ccc(S(N)(=O)=O)cc31)cn2C"
  EXPERIMENTAL TARGET: "Ribosomal protein S6 kinase alpha-5 (Homo sapiens) (UniProt O75582)"
  EXPERIMENTAL RESULT: 103
- TEST SMILES: "COc1ccc2c(c1)c(/C=C1\\C(=O)Nc3ccc(S(=O)(=O)N(C)C)cc31)cn2C"
  EXPERIMENTAL TARGET: "Ribosomal protein S6 kinase alpha-5 (Homo sapiens) (UniProt O75582)"
  EXPERIMENTAL RESULT: 105
- TEST SMILES: "CNS(=O)(=O)c1ccc2c(c1)/C(=C/c1cn(C)c3ccc(OC)cc13)C(=O)N2"
  EXPERIMENTAL TARGET: "Ribosomal protein S6 kinase alpha-5 (Homo sapiens) (UniProt O75582)"
  EXPERIMENTAL RESULT: 96

Provide the documented Activity with Ribosomal protein S6 kinase alpha-5 (Homo sapiens) (UniProt O75582) as the system for `Cn1cc(/C=C2\C(=O)Nc3ccc(S(N)(=O)=O)cc32)c2ccccc21`
99

* * *

Target: High affinity nerve growth factor receptor (Homo sapiens)
Sequence (P04629 whole entry, the tested form may be a part): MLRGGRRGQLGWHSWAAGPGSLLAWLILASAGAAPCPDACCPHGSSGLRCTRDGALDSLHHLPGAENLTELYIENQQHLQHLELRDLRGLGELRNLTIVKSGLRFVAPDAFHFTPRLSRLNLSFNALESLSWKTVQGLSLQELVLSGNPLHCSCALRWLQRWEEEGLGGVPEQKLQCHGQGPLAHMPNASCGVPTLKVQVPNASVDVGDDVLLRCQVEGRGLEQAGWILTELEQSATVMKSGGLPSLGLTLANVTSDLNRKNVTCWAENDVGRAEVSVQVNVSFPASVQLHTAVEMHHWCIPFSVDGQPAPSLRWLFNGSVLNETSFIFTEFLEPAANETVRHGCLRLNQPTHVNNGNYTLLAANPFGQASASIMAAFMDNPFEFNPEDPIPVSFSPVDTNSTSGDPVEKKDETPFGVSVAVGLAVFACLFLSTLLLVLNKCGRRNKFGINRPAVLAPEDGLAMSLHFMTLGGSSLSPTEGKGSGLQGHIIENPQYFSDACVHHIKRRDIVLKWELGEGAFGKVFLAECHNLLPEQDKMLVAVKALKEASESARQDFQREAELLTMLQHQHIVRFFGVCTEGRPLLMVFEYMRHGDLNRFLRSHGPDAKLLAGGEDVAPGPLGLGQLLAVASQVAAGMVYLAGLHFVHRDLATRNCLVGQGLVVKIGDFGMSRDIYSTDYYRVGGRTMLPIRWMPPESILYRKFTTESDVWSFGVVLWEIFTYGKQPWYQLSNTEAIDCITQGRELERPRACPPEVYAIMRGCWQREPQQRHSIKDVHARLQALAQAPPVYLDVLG
Assay: Inhibition of GAL4 fused TrkA (unknown origin) expressed in PC12 cells transfected with pFA2-Elk plasmid and pFR-luciferase plasmid measured for 18 hrs by luciferase reporter gene assay
Format: cell-based, Rattus norvegicus, PC-12
Reported values of log10(IC50) for individual entries
All values: log10 IC50 [nM].

Solved cases (6 shown):
- TEST SMILES: "NS(=O)(=O)c1ccc2c(c1)/C(=C/c1c[nH]c3ccc(O)cc13)C(=O)N2"
  EXPERIMENTAL RESULT: 2.56
- TEST SMILES: "Cn1cc(/C=C2\\C(=O)Nc3ccccc32)c2ccccc21"
  EXPERIMENTAL RESULT: 3.00
- TEST SMILES: "COc1ccc2[nH]cc(/C=C3\\C(=O)Nc4ccc(S(N)(=O)=O)cc43)c2c1"
  EXPERIMENTAL RESULT: 2.01
- TEST SMILES: "CN(C)S(=O)(=O)c1ccc2c(c1)/C(=C/c1cn(C)c3ccc(O)cc13)C(=O)N2"
  EXPERIMENTAL RESULT: 1.97
- TEST SMILES: "COc1ccc2c(c1)c(/C=C1\\C(=O)Nc3ccc(S(=O)(=O)N(C)C)cc31)cn2C"
  EXPERIMENTAL RESULT: 1.66
- TEST SMILES: "Cn1cc(/C=C2\\C(=O)Nc3ccc(S(N)(=O)=O)cc32)c2ccccc21"
  EXPERIMENTAL RESULT: 1.56

Now take the following compound into account.
Provide the documented log10(IC50) with High affinity nerve growth factor receptor (Homo sapiens) as the system for `NS(=O)(=O)c1ccc2c(c1)/C(=C/c1c[nH]c3ccccc13)C(=O)N2`
2.53

* * *

Molecular target: Tyrosine-protein kinase JAK2 (Homo sapiens)
Experiment: Inhibition of human JAK2 assessed as residual activity at 1 uM relative to control
Reported values of Activity for individual entries
Write down the numeric answer in % and omit the unit.

Solved cases (5 shown):
- TEST SMILES: "CN(C)S(=O)(=O)c1ccc2c(c1)/C(=C/c1cn(C)c3ccc(O)cc13)C(=O)N2"
  EXPERIMENTAL TARGET: "Tyrosine-protein kinase JAK2 (Homo sapiens)"
  EXPERIMENTAL RESULT: 55
- TEST SMILES: "COc1ccc2c(c1)c(/C=C1\\C(=O)Nc3ccc(S(=O)(=O)N(C)C)cc31)cn2C"
  EXPERIMENTAL TARGET: "Tyrosine-protein kinase JAK2 (Homo sapiens)"
  EXPERIMENTAL RESULT: 72
- TEST SMILES: "COc1ccc2[nH]cc(/C=C3\\C(=O)Nc4ccc(S(N)(=O)=O)cc43)c2c1"
  EXPERIMENTAL TARGET: "Tyrosine-protein kinase JAK2 (Homo sapiens)"
  EXPERIMENTAL RESULT: 67
- TEST SMILES: "Cn1cc(/C=C2\\C(=O)Nc3ccc(S(N)(=O)=O)cc32)c2ccccc21"
  EXPERIMENTAL TARGET: "Tyrosine-protein kinase JAK2 (Homo sapiens)"
  EXPERIMENTAL RESULT: 67
- TEST SMILES: "CNS(=O)(=O)c1ccc2c(c1)/C(=C/c1cn(C)c3ccc(OC)cc13)C(=O)N2"
  EXPERIMENTAL TARGET: "Tyrosine-protein kinase JAK2 (Homo sapiens)"
  EXPERIMENTAL RESULT: 87

Now take the following compound into account.
State the recorded Activity for this entry: `COc1ccc2c(c1)c(/C=C1\C(=O)Nc3ccc(S(N)(=O)=O)cc31)cn2C`
86
